ASSAY_EXPLANATION: E. coli DRC41 culture turbidity changes, primary screen, E. coli filamentation inducer project, strain DRC41, OD650, 48 h (AID 1152);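 note: E. coli MC1000 strain DRC41 lacking acrAB efflux pump and sulA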
ASSAY_CONDITIONS: E. coli DRC41 (acrAB sulA), higher = more signal, called active from +8 up or from −8 down
Below is a list of entries, each paired with its recorded z-score value.
ENDPOINT: z-score

MOLECULE: O=C1[C@H]2[C@H]3[C@H](O)[C@H](O)CC(=NOCc4ccccc4)[C@@H]3CC[C@H]2C(=O)N1C[C@@H]1CCCO1
ENDPOINT: z-score
READING: 0.516

MOLECULE: COc1ccc(COC(=O)NN=C2C[C@@H](O)[C@@H](O)[C@@H]3[C@@H]4C(=O)N(c5ccc(F)cc5F)C(=O)[C@@H]4CC[C@H]23)cc1
ENDPOINT: z-score
READING: -0.544

MOLECULE: CCOC(=O)[C@H](CC(C)C)NC(=O)CCC1CC(OC(=O)NCc2ccc3c(c2)OCO3)CC2(CCCC(COC(=O)NCC(c3ccccc3)c3ccccc3)O2)O1 (stereo partly specified)
ENDPOINT: z-score
READING: 0.0056

MOLECULE: CC(C)=CCCC(C)=CCON=C1C[C@@H](O)[C@@H](O)[C@@H]2[C@@H]3C(=O)N(c4ccc(F)cc4F)C(=O)[C@@H]3CC[C@@H]12
ENDPOINT: z-score
READING: 0.217

MOLECULE: CCOC(=O)CCN1C(=O)[C@H]2[C@H]3[C@H](O)[C@H](O)CC(=NOCc4ccccc4)[C@H]3CC[C@H]2C1=O
ENDPOINT: z-score
READING: 1.02

MOLECULE: CC(C)CON=C1C[C@@H](O)[C@@H](O)[C@@H]2[C@@H]3C(=O)N(C4CCCCC4)C(=O)[C@@H]3CC[C@H]12
ENDPOINT: z-score
READING: 0.539

----------
Below is a list of entries, each paired with its recorded composite z-score value.
STUDY_TARGET: Neurogenic locus notch homolog protein 2 (Homo sapiens)
ASSAY_EXPLANATION: Notch2 binders on small-molecule microarrays, primary screen, biochemical, small-molecule microarray, 635 nm fluorescence, stem cell growth factors (AID 1073)
ASSAY_CONDITIONS: Notch2 binding, higher = more signal

COMPOUND: CCOC(=O)NN=C1C[C@@H](O)[C@@H](O)[C@@H]2[C@@H]3C(=O)N(c4cccc(Oc5ccccc5)c4)C(=O)[C@@H]3CC[C@H]12
STUDY_TARGET: Neurogenic locus notch homolog protein 2 (Homo sapiens)
composite z-score: 0.615
--
COMPOUND: CC(C)(C)N1C(=O)[C@H]2[C@H]3[C@H](O)[C@H](O)CC(=O)[C@H]3CC[C@H]2C1=O
STUDY_TARGET: Neurogenic locus notch homolog protein 2 (Homo sapiens)
composite z-score: 0.967
--
COMPOUND: C=CC[C@@H]1C=C[C@H](ON=C2[C@H]3CCn4c(=O)n(-c5ccccc5)c(=O)n4[C@H]3[C@H](O)[C@@H]3O[C@H]23)[C@@H](CO)O1
STUDY_TARGET: Neurogenic locus notch homolog protein 2 (Homo sapiens)
composite z-score: 0.502
--
COMPOUND: CCOC(=O)[C@H](CC(C)C)NC(=O)CCC1CC(OC(=O)NCCc2ccc(F)cc2)CC2(CCCC(COC(=O)NCCC(C)C)O2)O1 (some centres undefined)
STUDY_TARGET: Neurogenic locus notch homolog protein 2 (Homo sapiens)
composite z-score: -0.383

----------
ASSAY_EXPLANATION: PSAC antagonists in infected red cells, primary screen, cell-based, P. falciparum Indochina, OD700, 18 h (AID 1157)
ASSAY_CONDITIONS: P. falciparum Indochina infected erythrocytes, osmotic lysis OD700, 18 h; higher = more signal, called active from +8 up or from −8 down

MOLECULE: COC(=O)C=CCCc1coc(C=CCNC(=O)OC)n1
z-score: 0.247
--
MOLECULE: COC(=O)[C@H](C)NC(=O)CCC1CC(OC(=O)NCc2ccc3c(c2)OCO3)CC2(CCCC(COC(=O)NCc3cccc(C(F)(F)F)c3)O2)O1 (stereo partly specified)
z-score: -0.239
--
MOLECULE: CC(CCN1CCc2nc(-c3ccccc3)c(-c3ccccc3)cc2C1)=NOC[C@@H](O)[C@H]1O[C@@H]2OC(C)(C)O[C@@H]2[C@H]1O
z-score: 0.244
--
MOLECULE: CCOC(=O)[C@H](CC(C)C)NC(=O)CCC1CC(OC(=O)NCc2ccc3c(c2)OCO3)CC2(CCCC(COC(=O)NCC3CCCCC3)O2)O1 (stereo partly specified)
z-score: -0.0704
--
MOLECULE: Cc1ccc(S(=O)(=O)N[C@H]2COC(=O)CC=C[C@@H](C)COC(=O)CC=C[C@@H]2C)cc1
z-score: -0.014
--
MOLECULE: C[C@@H](ON=C1[C@H]2CCn3c(=O)n(-c4ccccc4)c(=O)n3[C@H]2[C@H](O)[C@@H]2O[C@H]12)c1cn([C@@H]2COC[C@H]2O)nn1
z-score: 0.122

----------
ASSAY_EXPLANATION: CREB reporter modulators without forskolin, primary screen, cell-based, PC12, CRE-LacZ reporter, unstimulated (AID 1145)
ASSAY_CONDITIONS: no forskolin, luminescence, 4.5 h, higher = more signal, called active from +8 up or from −8 down
Param threshold (-0.2) applies to z-score; output y when value >= threshold, n when value < threshold.

MOLECULE: C[C@@H]1CC[C@H]2C(=O)O[C@@H](COc3ccc(C(C)(C)C)cc3)CN2[C@@H]1c1ccc(Br)cc1
ASSIGNED_CATEGORY: y
//
MOLECULE: CO[C@H]1COC(=O)CC=C[C@@H](C)[C@H](OC)COC(=O)CCC[C@@H]1C
ASSIGNED_CATEGORY: n
//
MOLECULE: CCCNC(=O)OC[C@H]1O[C@H](CCON=C(C)C)C=C[C@@H]1Oc1ccc(OC)cc1
ASSIGNED_CATEGORY: y
//
MOLECULE: O=C1C=C[C@@H](O)[C@@H]2[C@@H]3C(=O)N(C[C@@H]4CCCO4)C(=O)[C@@H]3CC[C@@H]12
ASSIGNED_CATEGORY: n
//
MOLECULE: COC(=O)[C@H](C)NC(=O)CCC1CC(OC(=O)NCCc2ccc(F)cc2)CC2(CCCC(COC(=O)NCc3cccc(C(F)(F)F)c3)O2)O1 (stereo not given in full)
ASSIGNED_CATEGORY: y

----------
ASSAY_EXPLANATION: basal HepG2 mitochondrial membrane potential changes, profiling panel, cell-based, JC-1 fluorescence, 24 h, 100 nL compound (AID 1167); note: test concentration not given here
ASSAY_CONDITIONS: higher = more signal
Param threshold (0.07) applies to z-score; output true (1) when value >= threshold, false (0) when value < threshold.

MOLECULE: COc1ccc(COC(=O)NN=C2C[C@@H](O)[C@@H](O)[C@@H]3[C@@H]4C(=O)N(C5CCCCC5)C(=O)[C@@H]4CC[C@H]23)cc1
ASSIGNED_CATEGORY: false (0)

MOLECULE: COc1ccc(O[C@H]2C=C[C@@H](c3ccccc3)O[C@@H]2COC(=O)CCC(C)=NO[C@@H]2O[C@H](COC(C)=O)[C@@H](OC(C)=O)[C@H](OC(C)=O)[C@H]2OC(C)=O)cc1
ASSIGNED_CATEGORY: false (0)

MOLECULE: O=C1CCCC=C1C(O)CCOC(c1ccccc1)(c1ccccc1)c1ccccc1 (configuration not stated)
ASSIGNED_CATEGORY: false (0)

MOLECULE: CO[C@@H]1COC(=O)CC=C[C@@H](C)[C@@H]2C=C[C@H](O)[C@@H](COC(=O)CC=C[C@H]1C)O2
ASSIGNED_CATEGORY: true (1)

MOLECULE: COC(=O)[C@H](C)NC(=O)CCC1CC(OC(=O)NCc2ccc3c(c2)OCO3)CC2(CCCC(COC(=O)NCC3CCCCC3)O2)O1 (some centres not stated)
ASSIGNED_CATEGORY: false (0)

MOLECULE: COC(=O)[C@H](C)NC(=O)CCC1CC(OC(=O)NCc2ccc3c(c2)OCO3)CC2(CCCC(COC(=O)NCc3cccc(C(F)(F)F)c3)O2)O1 (some centres not stated)
ASSIGNED_CATEGORY: false (0)

MOLECULE: CC(=O)Nc1ccc([C@@H]2N[C@H](C(=O)O)CC[C@H]2C)cc1
ASSIGNED_CATEGORY: true (1)

MOLECULE: O=C(NN=C1C[C@@H](O)[C@@H](O)[C@@H]2[C@@H]3C(=O)N(C[C@@H]4CCCO4)C(=O)[C@@H]3CC[C@@H]12)OCc1ccccc1
ASSIGNED_CATEGORY: true (1)

MOLECULE: Cc1ccc(S(=O)(=O)NC(CCc2ccccc2)CC(=O)C(C)(C)C)cc1 (configuration not stated)
ASSIGNED_CATEGORY: false (0)

MOLECULE: CC(CCC(=O)OC[C@H]1O[C@H](C#Cc2ccccc2)C=C[C@@H]1Oc1ccc(C)cc1)=NO[C@H](C)c1cn([C@H](CO)Cc2ccccc2)nn1
ASSIGNED_CATEGORY: false (0)

MOLECULE: CO[C@@H]1COC(=O)[C@@H]2CCCN2C(=O)[C@@H](C)COC(=O)CC=C[C@H]1C
ASSIGNED_CATEGORY: false (0)

MOLECULE: CO[C@H]1COC(=O)CC=C[C@H](C)COC(=O)[C@@H](C)NC(=O)CC=C[C@@H]1C
ASSIGNED_CATEGORY: true (1)

MOLECULE: COc1ccc(O[C@H]2C=C[C@@H](c3ccccc3)O[C@@H]2CON=C(C)CCC(=O)OC[C@H]2O[C@H](c3ccccc3)C=C[C@@H]2Oc2ccc(OC)cc2)cc1
ASSIGNED_CATEGORY: true (1)

MOLECULE: CO[C@H]1COC(=O)[C@@H](C)COC(=O)[C@H](C)NC(=O)CC=C[C@H]1C
ASSIGNED_CATEGORY: true (1)

MOLECULE: COc1cccc([C@H]2Oc3ccc(OC)cc3C(=NO[C@@H]3O[C@H](COC(C)=O)[C@@H](OC(C)=O)[C@H](OC(C)=O)[C@H]3OC(C)=O)[C@@H]2O)c1
ASSIGNED_CATEGORY: false (0)

MOLECULE: COC(=O)CC=C[C@@H](C)[C@@H](C=NO[C@H](C)c1cn([C@H](CO)Cc2ccccc2)nn1)NS(=O)(=O)c1ccc(C)cc1
ASSIGNED_CATEGORY: false (0)
